Target: Human serotonin 5-HT6 receptor (Homo sapiens, UniProt P50406)
Construct: made in house; host or cells: insect Sf21 cells (baculovirus vector BacPAK8)
Sequence (P50406 whole entry): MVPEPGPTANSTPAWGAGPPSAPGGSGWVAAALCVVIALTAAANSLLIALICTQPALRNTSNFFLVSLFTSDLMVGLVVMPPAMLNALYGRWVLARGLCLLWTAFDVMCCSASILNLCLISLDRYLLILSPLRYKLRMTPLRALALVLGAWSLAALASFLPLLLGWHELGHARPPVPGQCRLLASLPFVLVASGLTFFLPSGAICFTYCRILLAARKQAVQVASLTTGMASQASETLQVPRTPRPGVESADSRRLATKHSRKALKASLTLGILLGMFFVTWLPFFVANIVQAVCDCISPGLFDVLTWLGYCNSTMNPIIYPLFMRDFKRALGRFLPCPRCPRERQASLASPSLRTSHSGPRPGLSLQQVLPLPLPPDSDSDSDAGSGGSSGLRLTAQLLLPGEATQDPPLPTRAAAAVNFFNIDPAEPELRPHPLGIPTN
Experiment: [3H]LSD binding assay on cloned 5-HT6 receptor membranes
Details: Table 2; 1.87 nM [3H]LSD, 37 C, 60 min; read-out: IC50 (nM), binding affinity to the 5-HT6 receptor
# reported IC50; entries follow
Please reply with the bare figure in nM and do not write the unit itself.

Sample answers from the record:
{"columns": ["compound", "endpoint", "unit spec", "test result"],
 "data": [
  ["CC1(c2ccc(O)cc2)C(=O)c2c(N3CCNCC3)cc(Cl)cc2N(Cc2ccccc2Br)C1=O (stereo not drawn) [Example 36]", "IC50", "nM", 29],
  ["COc1ccc([C@]2(C)C(=O)c3c(N4CCNCC4)cc(Cl)cc3N(Cc3ccccc3)C2=O)cc1 [Example 13-2]", "IC50", "nM", 9],
  ["COc1ccc(C2(C)C(=O)c3c(N4CCNCC4)cc(Cl)cc3N(Cc3ccccc3Br)C2=O)cc1 (stereo not drawn) [Example 35]", "IC50", "nM", 9.2],
  ["CN1CCN(c2cc(Cl)cc3c2C(=O)[C@@](C)(c2ccc(N)cc2)C(=O)N3Cc2ccccc2)CC1 (stereo in doubt) [Example 4]", "IC50", "nM", 7.4],
  ["COc1ccc(C2(C)C(=O)c3c(N4CCNCC4)cc(Cl)cc3N(Cc3ccc(-c4ccccc4)cc3)C2=O)cc1 (stereo not drawn) [Example 41]", "IC50", "nM", 351]
]}

## Input Request the reported IC50 associated with CN1CCN(c2cc(Cl)cc3c2C(=O)C(C)(c2ccc(O)cc2)C(=O)N3Cc2ccccc2)CC1 (stereo not drawn) [Example 2]
## Output 2.5

---

# reported IC50; entries follow
Target: 5-HT2a (Homo sapiens, UniProt P28223)
Construct: purchased Euroscreen/BioSignal Packard Inc
Sequence (P28223 whole entry): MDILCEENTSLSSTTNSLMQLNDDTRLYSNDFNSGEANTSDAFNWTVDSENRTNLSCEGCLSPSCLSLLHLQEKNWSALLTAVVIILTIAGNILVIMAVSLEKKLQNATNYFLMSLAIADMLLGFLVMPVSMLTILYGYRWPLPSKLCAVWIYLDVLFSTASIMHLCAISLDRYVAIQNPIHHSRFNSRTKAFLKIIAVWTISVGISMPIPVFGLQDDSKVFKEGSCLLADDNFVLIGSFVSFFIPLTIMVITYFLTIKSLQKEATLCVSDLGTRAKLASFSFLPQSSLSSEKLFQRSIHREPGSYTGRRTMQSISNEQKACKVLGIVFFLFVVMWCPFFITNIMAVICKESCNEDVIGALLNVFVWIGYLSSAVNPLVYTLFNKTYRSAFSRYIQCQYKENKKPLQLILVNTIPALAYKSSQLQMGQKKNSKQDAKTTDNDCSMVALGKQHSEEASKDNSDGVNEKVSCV
Assay: Radioligand binding, 5-HT2a ([3H]Ketanserin)
Settings: Table 4; [3H]Ketanserin 1 nM; read-out: Binding affinity, IC50 (nM) 5-HT2a

Sample answers from the record:
{"columns": ["compound", "IC50"],
 "data": [
  ["CCN1C(=O)C(C)(c2ccc(OC)cc2)C(=O)c2c(N3CCNCC3)cc(Cl)cc21 (stereo not shown)", "6360 nM"],
  ["CC1(c2ccc(O)cc2)C(=O)c2c(N3CCNCC3)cc(Cl)cc2N(Cc2ccccc2Br)C1=O (stereo not shown)", "6210 nM"]
]}

## Input Request the reported IC50 associated with CC1(c2cccc(O)c2)C(=O)c2c(N3CCNCC3)cc(Cl)cc2N(Cc2ccccc2)C1=O (stereo not shown)
## Output 7550 nM

## Input Request the reported IC50 associated with COc1ccc(C2(C)C(=O)c3c(N4CCNCC4)cc(Cl)cc3N(Cc3cccnc3)C2=O)cc1 (stereo not shown)
## Output 6020 nM

## Input Request the reported IC50 associated with CC1(c2ccc(O)cc2)C(=O)c2c(N3CCNCC3)cc(Cl)cc2N(Cc2cccc(Br)c2)C1=O (stereo not shown)
## Output 6960 nM

## Input Request the reported IC50 associated with COc1ccc(C2(C)C(=O)c3c(N4CCNCC4)cc(Cl)cc3N(Cc3ccc4ccccc4n3)C2=O)cc1 (stereo not shown)
## Output 6100 nM

## Input Request the reported IC50 associated with CN1CCN(c2cc(Cl)cc3c2C(=O)C(C)(c2ccccc2)C(=O)N3Cc2ccccc2)CC1 (stereo not shown)
## Output 1230 nM

---

Biological target: hD3 (Homo sapiens, UniProt P35462)
Construct: purchased BioSignal Packard Inc., Montreal, Canada
Sequence (P35462 whole entry): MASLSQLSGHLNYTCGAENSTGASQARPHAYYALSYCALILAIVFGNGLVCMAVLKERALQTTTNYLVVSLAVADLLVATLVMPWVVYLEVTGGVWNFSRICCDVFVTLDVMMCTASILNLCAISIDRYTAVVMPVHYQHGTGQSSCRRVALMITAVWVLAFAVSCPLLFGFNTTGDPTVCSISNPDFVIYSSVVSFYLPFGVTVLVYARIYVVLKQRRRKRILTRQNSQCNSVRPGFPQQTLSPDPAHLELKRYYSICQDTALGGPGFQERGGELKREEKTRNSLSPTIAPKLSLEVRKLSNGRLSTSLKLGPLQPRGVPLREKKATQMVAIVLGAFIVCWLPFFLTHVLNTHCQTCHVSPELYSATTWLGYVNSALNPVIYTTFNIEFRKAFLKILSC
Experiment: Radioligand binding, dopamine D3 ([3H]spiperone)
Settings: Table 4; [3H]spiperone 1 nM; read-out: Binding affinity, IC50 (nM) D3
Could you mark each record MET if its IC50 falls strictly under 9000 nM, and NOT MET if it equals or exceeds it?

# count of solved cases: 4
{"columns": ["compound", "qualitative label"],
 "data": [
  ["CC1(c2ccc([N+](=O)[O-])cc2)C(=O)c2c(N3CCNCC3)cc(Cl)cc2N(Cc2ccccc2)C1=O (stereo not shown)", "NOT MET"],
  ["CCN(CC)c1ccc(C2(C)C(=O)c3c(N4CCNCC4)cc(Cl)cc3N(Cc3ccccc3)C2=O)cc1 (stereo not shown)", "MET"],
  ["CCN(CC)c1ccc(C2(C)C(=O)c3c(N4CCN(C)CC4)cc(Cl)cc3N(Cc3ccccc3)C2=O)cc1 (stereo not shown)", "MET"],
  ["CC1(c2ccc(O)cc2)C(=O)c2c(N3CCNCC3)cc(Cl)cc2N(Cc2ccccc2O)C1=O (stereo not shown)", "NOT MET"]
]}

Moving on to the next compound.
## Input Does the reported IC50 of CN1CCN(c2cc(Cl)cc3c2C(=O)C(C)(c2ccc(O)cc2)C(=O)N3Cc2cccc(N)c2)CC1 (stereo not shown) stay below 9000 nM?
## Output MET

---

Target: 5-HT7 (Homo sapiens, UniProt P34969)
Construct: purchased Euroscreen/BioSignal Packard Inc
Sequence (P34969 whole entry): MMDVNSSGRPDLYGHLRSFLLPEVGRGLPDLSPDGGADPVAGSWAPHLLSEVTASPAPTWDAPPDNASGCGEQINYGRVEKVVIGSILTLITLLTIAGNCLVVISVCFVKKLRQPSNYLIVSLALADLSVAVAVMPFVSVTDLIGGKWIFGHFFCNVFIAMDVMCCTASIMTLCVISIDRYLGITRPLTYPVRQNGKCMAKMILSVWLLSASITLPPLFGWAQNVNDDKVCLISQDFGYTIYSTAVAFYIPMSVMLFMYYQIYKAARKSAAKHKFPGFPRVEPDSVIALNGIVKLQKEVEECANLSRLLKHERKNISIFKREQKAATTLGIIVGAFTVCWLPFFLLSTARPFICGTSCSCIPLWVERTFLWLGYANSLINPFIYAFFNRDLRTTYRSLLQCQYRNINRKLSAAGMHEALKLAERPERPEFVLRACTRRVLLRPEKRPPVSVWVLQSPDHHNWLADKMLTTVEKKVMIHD
Assay: Radioligand binding, 5-HT7 ([3H]LSD)
Conditions: Table 4; [3H]LSD 3 nM; read-out: Binding affinity, IC50 (nM) 5-HT7
# reported IC50; entries follow
Please reply with the bare figure in nM and do not write the unit itself.

## Input Request the reported IC50 associated with COc1ccc(C2(C)C(=O)c3c(N4CCNCC4)cc(Cl)cc3N(Cc3ccccc3)C2=O)cc1 (racemic) [Example 13]
## Output 9000

## Input Request the reported IC50 associated with COc1ccc(CN2C(=O)C(C)(c3ccc(OC)cc3)C(=O)c3c(N4CCNCC4)cc(Cl)cc32)cc1 (stereo not shown) [Example 31]
## Output 8440

## Input Request the reported IC50 associated with CN1CCN(c2cc(Cl)cc3c2C(=O)C(C)(c2ccc(OCc4ccccc4)c(Br)c2)C(=O)N3Cc2ccccc2)CC1 (stereo not shown) [Example 12]
## Output 136

## Input Request the reported IC50 associated with CN1CCN(c2cc(Cl)cc3c2C(=O)C(C)(c2ccc(O)cc2)C(=O)N3Cc2ccccc2)CC1 (stereo not shown) [Example 2]
## Output 920

## Input Request the reported IC50 associated with CC1(c2ccc(I)cc2)C(=O)c2c(N3CCNCC3)cc(Cl)cc2N(Cc2ccccc2)C1=O (stereo not shown) [Example 21]
## Output 3340

---

Target: hD3 (Homo sapiens, UniProt P35462)
Construct: purchased BioSignal Packard Inc., Montreal, Canada
Experiment: Radioligand binding, dopamine D3 ([3H]spiperone)
Conditions: Table 4; [3H]spiperone 1 nM; read-out: Binding affinity, IC50 (nM) D3
endpoint: IC50 (nM)
Please reply with the bare figure in nM and do not write the unit itself.

Sample answers from the record:
{"columns": ["compound", "IC50, nM"],
 "data": [
  ["COc1ccc(C2(C)C(=O)c3c(N4CCNCC4)cc(Cl)cc3N(Cc3cccc([N+](=O)[O-])c3)C2=O)cc1 (centres unmarked) [Example 23]", 9650],
  ["COc1ccc(C2(C)C(=O)c3c(N4CCNCC4)cc(Cl)cc3N(Cc3cccc(OC)c3)C2=O)cc1 (centres unmarked) [Example 27]", 2640],
  ["COc1ccc(C2(C)C(=O)c3c(N4CCN(C)CC4)cc(Cl)cc3N(Cc3cccc(N)c3)C2=O)cc1 (centres unmarked) [Example 9]", 821]
]}

## Input Request the reported IC50 associated with CC1(c2ccc(O)cc2)C(=O)c2c(N3CCNCC3)cc(Cl)cc2N(Cc2ccccc2)C1=O (racemic) [Example 14]
## Output 1500

---

# reported IC50; entries follow
Target: Human serotonin 5-HT6 receptor (Homo sapiens, UniProt P50406)
Construct: made in house; host or cells: insect Sf21 cells (baculovirus vector BacPAK8)
Experiment: [3H]LSD binding assay on cloned 5-HT6 receptor membranes
Details: Table 4; read-out: Binding affinity, IC50 (nM) 5-HT6
Please don't drop the unit; write it after the number.

Sample answers from the record:
{"columns": ["compound", "assay target", "endpoint", "test result"],
 "data": [
  ["CN1CCN(c2cc(Cl)cc3c2C(=O)C(C)(c2ccccc2)C(=O)N3Cc2ccccc2)CC1 (stereo not shown)", "Human serotonin 5-HT6 receptor (Homo sapiens, UniProt P50406)", "IC50", "1.4 nM"],
  ["COc1ccc([C@]2(C)C(=O)c3c(N4CCNCC4)cc(Cl)cc3N(Cc3ccccc3)C2=O)cc1", "Human serotonin 5-HT6 receptor (Homo sapiens, UniProt P50406)", "IC50", "9 nM"],
  ["C[C@@]1(c2ccc(O)cc2)C(=O)c2c(N3CCNCC3)cc(Cl)cc2N(Cc2ccccc2)C1=O", "Human serotonin 5-HT6 receptor (Homo sapiens, UniProt P50406)", "IC50", "13.3 nM"]
]}

Here's the next entry for you.
## Input Request the reported IC50 associated with CN1CCN(c2cc(Cl)cc3c2C(=O)C(C)(c2ccc(O)cc2)C(=O)N3Cc2cccc(N)c2)CC1 (stereo not shown)
## Output 6.2 nM

Reference for the values: patent US20080275058A1
